Data provenance is ChEMBL document CHEMBL1201862.

Tested on: 786-0
Method description: NCI tumour cell line growth inhibition, 48 h
The source made the active and inactive calls. Cut-off read from the data, not from the text of the source: active = GI50 up to about 1.1 µM and inactive = higher.
Value type: GI50

Compound	GI50
NNC(=S)N/N=C(\C(=O)Nc1cccc(O)c1)C1C(=O)NC(=S)NC1=O	> 100 µM (inactive)
CC1CC/C(=C\c2ccc(F)cc2)C2=C1C(c1ccc(F)cc1)n1c(s/c(=C\c3ccc(Cl)cc3)c1=O)=N2 (stereo not given)	> 100 µM (inactive)
CCOC(=O)C1C2CCC1CC(=NNc1ccc([N+](=O)[O-])cc1[N+](=O)[O-])C2 (stereo not given)	> 50 µM (inactive)
COc1ccc(NC(=O)C(C#N)=C(SC)SC)cc1	> 100 µM (inactive)
COC1/C=C(C)/C=C/C(C)/C=C/C(=O)OC(/C(C)=C/C=C(\C)CNC(=O)[C@H](CO)NC=O)C(C)/C=C/C=C/C(OC)CC/C=C(C)/C=C/C1 (stereo not given in full)	0.0288 µM (active)
N#Cc1ccc(/C=N/C23CC4CC(CC(C4)C2)C3)cc1	> 100 µM (inactive)
CC1=CCC2CC1C(C(=O)c1c[nH]c3ccccc13)=NC2(C)C (stereo not given)	81.1 µM (inactive)
C#C[C@H](CCCC)OC(=O)N[C@H](C)c1ccccc1	49.1 µM (inactive)

Complete the entry with GI50 for CC(C)(C)c1cc(C(P(=O)(O)O)P(=O)(O)O)cc(C(C)(C)C)c1O > 100 µM (inactive)

Complete the entry with GI50 for COC(=O)C1C(=O)O[C@@H](c2ccc(OC)cc2OC)C1C(=O)OC (stereo not given in full) > 100 µM (inactive)

----------
System: 786-0
Method description: NCI tumour cell line growth inhibition, 48 h
Active and inactive are the calls of the source. No stated cut-off is given here; in the data, active = GI50 up to about 1.1 µM and inactive = higher.
Result category, one only: label 1 for active, label 0 for inactive

In [3]: df
Out[3]:
                                   compound  category_label
0  CC(C)=CCC/C(C)=C/CC/C(C)=C/CC(CO)N(C)CC/C=C(\C)CCC=C(C)C (centres undefined)         label 0
1  O=C(c1cc(Cl)cc(Cl)c1)N1CCN(C(=O)c2cc(Cl)cc(Cl)c2)C1=S         label 0

Test call, this compound: O=C(O)[C@@H]1[C@H](C(=O)O)[C@H](C(=O)O)C[C@@H]1C(=O)O label 0

Test call, this compound: NCC(O)CN.Oc1c(Cl)c(Cl)c(Cl)c(Cl)c1Cl label 0

Test call, this compound: CCC1CCC2c3c([nH]c4ccccc34)C3C(=O)N(c4ccc(OC)cc4)C(=O)C3C2C1 (centres undefined) label 0

Test call, this compound: COC(=O)C1=C(C)N(NC(=O)Nc2ccccc2)C2(N)N(NC(=O)Nc3ccccc3)C(C)=C(C(=O)OC)C12C(=O)OC (centres undefined) label 0

Test call, this compound: Oc1nc(CC(O)c2ccc(Cl)c(Cl)c2)cc(-c2ccccc2)n1 (centres undefined) label 0

----------
Tested on: BT-549
Method description: NCI tumour cell line growth inhibition, 48 h
Activity calls are given as the source filed them. Rule as the data show it: active = GI50 up to about 1.1 µM and inactive = higher.
Value type: GI50

In [3]: df
Out[3]:
                                   compound  study_system              result
0  CCC1(CC)C(=O)N(C(=O)c2ccc(Cl)cc2)N(C(=O)c2ccccc2Cl)C1=O        BT-549  67.9 µM (inactive)
1  CCC(Sc1cc(Cl)c(C)cc1S(=O)(=O)Nc1nc(N)nc(N(C)C)n1)C(=O)O (centres undefined)        BT-549  > 10 µM (inactive)
2  Cc1c(S(=O)(=O)/N=C(\NN)Nc2ccc(Cl)cc2)sc2ccc(Cl)cc12        BT-549  16.7 µM (inactive)

Name the value of GI50 reported for c1ccc2[nH]c3[nH]c4[nH]c5ccccc5[nH]c4[nH]c3[nH]c2c1 when tested on BT-549. > 100 µM (inactive)

Name the value of GI50 reported for CC(C)=CCc1c(O)c(CC=C(C)C)c2oc(-c3ccc(O)cc3O)c(CC=C(C)C)c(=O)c2c1O when tested on BT-549. 7.98 µM (inactive)
